Record type: ΔTm measurement. Applies to: UDP-3-O-acyl-N-acetylglucosamine deacetylase (Escherichia coli K-12), P0A725 [C125S]
Kindly write the number and append the unit.

Check out these entries, answers already filled in.
chemSmiles: COc1ccc(-c2cc3n(c2)C(=O)N(CC[C@](C)(C(=O)NO)S(C)(=O)=O)C3)c(F)c1
ΔTm: 8.1 °C

chemSmiles: C[C@@](CCN1Cc2cc(C#Cc3ccc([C@H](O)CO)cc3)cn2C1=O)(C(=O)NO)S(C)(=O)=O
ΔTm: 11.1 °C

chemSmiles: C[C@@](CCN1Cc2cc(C#CC#C[C@H](O)CO)cn2C1=O)(C(=O)NO)S(C)(=O)=O
ΔTm: 7.3 °C

Pending compound:
Record C[C@@](CCN1Cc2cc(C#Cc3ccc(C4(O)COC4)cc3)sc2C1=O)(C(=O)NO)S(C)(=O)=O , field ΔTm: 11.4 °C

====

- assayNotes: Cmax in NMRI/ICR CD-1 mouse at 50 mg/kg, sc by LC-MS/MS analysis
- Format: ADME, organism-based
- Design: dose 50 mg/kg, route subcutaneous
- details: in vivo
The following molecules are listed with their measured Cmax values.
Just the number in ng/mL, nothing appended.

chemSmiles: C[C@@](CCN1Cc2cc(C#CC#C[C@H]3C[C@@H]3CO)cn2C1=O)(C(=O)NO)S(C)(=O)=O
unitSpec: ng/mL
valueMeasured: 22600
--
chemSmiles: C[C@@](CCN1Cc2cc(C#CC#CC3(CO)CC3)cn2C1=O)(C(=O)NO)S(C)(=O)=O
unitSpec: ng/mL
valueMeasured: 20200
--
chemSmiles: C[C@@](CCN1Cc2cc(C#Cc3ccc([C@H](O)CO)cc3)cn2C1=O)(C(=O)NO)S(C)(=O)=O
unitSpec: ng/mL
valueMeasured: 41300

Record C[C@@](CCN1Cc2cc(C#CC#CC3(N)CC3)cn2C1=O)(C(=O)NO)S(C)(=O)=O.Cl , field Cmax: 8600

Record COc1ccc(-c2ccn(CC[C@](C)(C(=O)NO)S(C)(=O)=O)c(=O)c2)c(F)c1 , field Cmax: 10300

====

- assayNotes: physchem
- details: n-octanol/phosphate buffered saline, pH 7.4
- Description: n-Octanol/phosphate buffered saline partition coefficient, log D of the compound at pH 7.4 by LC-UV method
endpoint: logD

Check out these entries, answers already filled in.
chemSmiles: C[C@@](CCN1Cc2cc(C#CC#C[C@H]3C[C@@H]3CO)sc2C1=O)(C(=O)NO)S(C)(=O)=O
logD: 1.3
--
chemSmiles: CC(C)(O)C#CC#Cc1ccc2c(c1)CN(CC[C@](C)(C(=O)NO)S(C)(=O)=O)C2=O
logD: 1.2
--
chemSmiles: C[C@@](CCN1Cc2cc(C#Cc3ccc(CN4CCOCC4)cc3)ccc2C1=O)(C(=O)NO)S(C)(=O)=O
logD: 1.8
--
chemSmiles: CC(C)(O)c1ccc(C#Cc2ccc3c(c2)CN(CC[C@](C)(C(=O)NO)S(C)(=O)=O)C3=O)cc1
logD: 2.3
--
chemSmiles: CC(C)(O)c1ccc(C#Cc2cc3c(s2)C(=O)N(CC[C@](C)(C(=O)NO)S(C)(=O)=O)C3)cc1
logD: 2.1

Record COc1ccc(-c2ccc3c(c2)CN(CC[C@](C)(C(=O)NO)S(C)(=O)=O)C3=O)c(F)c1 , field logD: 1.9

Record C[C@@](CCN1Cc2cc(C#CC#CC3(N)CC3)sc2C1=O)(C(=O)NO)S(C)(=O)=O.Cl , field logD: 1

Record C[C@@](CCN1Cc2cc(C#CC#CC3(O)COC3)sc2C1=O)(C(=O)NO)S(C)(=O)=O , field logD: 0.5

Record C[C@@](CCN1Cc2cc(C#Cc3ccc(COC(=O)N4CCC(O)CC4)cc3)cn2C1=O)(C(=O)NO)S(C)(=O)=O , field logD: 1.7

====

Record type: ΔTm measurement. Applies to: UDP-3-O-acyl-N-acetylglucosamine deacetylase (Escherichia coli K-12), P0A725 [C125S]
Just the number in °C, nothing appended.

Record C[C@@](CCN1Cc2cc(C#CC#CC3(N)CC3)cn2C1=O)(C(=O)NO)S(C)(=O)=O.Cl / UDP-3-O-acyl-N-acetylglucosamine deacetylase (Escherichia coli K-12), P0A725 [C125S], ΔTm recorded as 10

====

- Test system: UDP-3-O-acyl-N-acetylglucosamine deacetylase (Pseudomonas aeruginosa (strain ATCC 15692 / PAO1 / 1C / PRS 101 / LMG12228)), P47205 [C40S]
- Sequence (P47205 whole entry C40S): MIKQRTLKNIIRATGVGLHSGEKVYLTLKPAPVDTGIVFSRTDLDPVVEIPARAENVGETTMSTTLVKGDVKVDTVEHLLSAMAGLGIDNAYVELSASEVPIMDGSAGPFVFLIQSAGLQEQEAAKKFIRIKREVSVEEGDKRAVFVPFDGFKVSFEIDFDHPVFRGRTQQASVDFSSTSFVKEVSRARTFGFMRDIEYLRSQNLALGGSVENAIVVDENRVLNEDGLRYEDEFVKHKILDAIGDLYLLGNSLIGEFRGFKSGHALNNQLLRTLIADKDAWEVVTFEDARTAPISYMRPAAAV
endpoint: ΔTm (°C)
Just the number in °C, nothing appended.

chemSmiles: C[C@@](CCN1Cc2cc(C#Cc3ccc([C@@H]4C[C@H]4CO)cc3)cn2C1=O)(C(=O)NO)S(C)(=O)=O
ΔTm (°C): 13.4

chemSmiles: C[C@@](CCN1Cc2cc(C#CC#CC3(N)CC3)cn2C1=O)(C(=O)NO)S(C)(=O)=O.Cl
ΔTm (°C): 11.6

Record CC(C)(O)C#CC#Cc1ccc2c(c1)CN(CC[C@](C)(C(=O)NO)S(C)(=O)=O)C2=O , field ΔTm: 12.6

====

- assayNotes: physchem
- details: DMSO, pH 4
- Description: Solubility of the compound in DMSO at pH 4 incubated for 24 hrs by LC-UV method
The following molecules are listed with their measured solubility at 24 h values.
Just the number in µg/mL, nothing appended.

chemSmiles: C[C@@](CCN1Cc2cc(C#Cc3ccc([C@H](O)CO)cc3)sc2C1=O)(C(=O)NO)S(C)(=O)=O
endpoint: solubility at 24 h
unitSpec: µg/mL
valueMeasured: 230
--
chemSmiles: C[C@@](CCN1Cc2cc(C#Cc3ccc([C@@H]4C[C@H]4CO)cc3)cn2C1=O)(C(=O)NO)S(C)(=O)=O
endpoint: solubility at 24 h
unitSpec: µg/mL
valueMeasured: 73
--
chemSmiles: C[C@@](CCN1Cc2cc(C#Cc3ccc(CNS(C)(=O)=O)cc3)cn2C1=O)(C(=O)NO)S(C)(=O)=O
endpoint: solubility at 24 h
unitSpec: µg/mL
valueMeasured: 1
--
chemSmiles: C[C@@](CCN1Cc2cc(C#Cc3ccc(C4(O)COC4)cc3)sc2C1=O)(C(=O)NO)S(C)(=O)=O
endpoint: solubility at 24 h
unitSpec: µg/mL
valueMeasured: 114
--
chemSmiles: C[C@@](CCN1Cc2cc(C#Cc3ccc([C@H]4C[C@@H]4CO)cc3)cn2C1=O)(C(=O)NO)S(C)(=O)=O
endpoint: solubility at 24 h
unitSpec: µg/mL
valueMeasured: 11

Record CC(C)(O)C#CC#Cc1ccc2c(c1)CN(CC[C@](C)(C(=O)NO)S(C)(=O)=O)C2=O , field solubility at 24 h: 71

Record C[C@@](CCN1Cc2cc(C#CC#C[C@H]3C[C@@H]3CO)sc2C1=O)(C(=O)NO)S(C)(=O)=O , field solubility at 24 h: 522

Record CC(C)(O)c1ccc(C#Cc2ccc3c(c2)CN(CC[C@](C)(C(=O)NO)S(C)(=O)=O)C3=O)cc1 , field solubility at 24 h: 4

Record C[C@@](CCN1Cc2cc(C#Cc3ccc(C4(CO)CC4)cc3)cn2C1=O)(C(=O)NO)S(C)(=O)=O , field solubility at 24 h: 5

Record C[C@@](CCN1Cc2cc(C#CC#CC3(CO)CC3)sc2C1=O)(C(=O)NO)S(C)(=O)=O , field solubility at 24 h: 443

====

The following compounds are listed with their measured MIC values.
- Test system: Escherichia coli
- assayNotes: microbe, parasite or virus in culture
- details: ATCC 25922
- Description: Antibacterial activity against wild-type Escherichia coli ATCC 25922 by broth microdilution method
Just the number in µg/mL, nothing appended.

chemSmiles: C[C@@](CCN1Cc2cc(C#Cc3ccc(CNS(C)(=O)=O)cc3)cn2C1=O)(C(=O)NO)S(C)(=O)=O
assayedTarget: Escherichia coli
unitSpec: µg/mL
MIC: 0.25
//
chemSmiles: CC(C)(O)c1ccc(C#Cc2ccc3c(c2)CN(CC[C@](C)(C(=O)NO)S(C)(=O)=O)C3=O)cc1
assayedTarget: Escherichia coli
unitSpec: µg/mL
MIC: 0.25
//
chemSmiles: COc1ccc(-c2cc3n(c2)C(=O)N(CC[C@](C)(C(=O)NO)S(C)(=O)=O)C3)c(F)c1
assayedTarget: Escherichia coli
unitSpec: µg/mL
MIC: 0.12
//
chemSmiles: C[C@@](CCN1Cc2cc(C#Cc3ccc([C@H](O)CO)cc3)cn2C1=O)(C(=O)NO)S(C)(=O)=O
assayedTarget: Escherichia coli
unitSpec: µg/mL
MIC: 0.5

Record CC(C)(O)c1ccc(C#Cc2cc3c(s2)C(=O)N(CC[C@](C)(C(=O)NO)S(C)(=O)=O)C3)cc1 / Escherichia coli, MIC recorded as 0.12

Record C[C@@](CCN1Cc2cc(C#Cc3ccc(C4(O)COC4)cc3)cn2C1=O)(C(=O)NO)S(C)(=O)=O / Escherichia coli, MIC recorded as 0.12

Record C[C@@](CCN1Cc2cc(C#CC#C[C@H](O)CO)cn2C1=O)(C(=O)NO)S(C)(=O)=O / Escherichia coli, MIC recorded as 8

====

- assayNotes: physchem
- details: n-octanol/phosphate buffered saline, pH 7.4
So basically: is logD under 0.9? Then Condition met. Not under? Then Condition not met.

Use the examples below as a reference point.
chemSmiles: C[C@@](CCN1Cc2cc(C#Cc3ccc([C@H](O)CO)cc3)cn2C1=O)(C(=O)NO)S(C)(=O)=O
classification: Condition met

chemSmiles: COc1ccc(-c2ccn(CC[C@](C)(C(=O)NO)S(C)(=O)=O)c(=O)c2)c(F)c1
classification: Condition not met

chemSmiles: COc1ccc(-c2cc3n(c2)C(=O)N(CC[C@](C)(C(=O)NO)S(C)(=O)=O)C3)c(F)c1
classification: Condition not met

Pending compound:
Req: Does C[C@@](CCN1Cc2cc(C#Cc3ccc(C4(O)COC4)cc3)cn2C1=O)(C(=O)NO)S(C)(=O)=O have logD strictly under 0.9?
Resp: Condition not met
